Test system: KG-1
EXPERIMENT: Cytotoxicity study (MTS), 5 days
Assay type: cell-based
ASSAY_CONDITIONS: Homo sapiens, AML
QUANTITY_KIND: IC50 (µM)
Numbers only, in µM.

INPUT: Please look up its IC50: Cc1[nH]c2ccc(F)cc2c1-c1nc2c3cccnc3c3ncccc3c2[nH]1 [COMPOUND I]
OUTPUT: 0.51

---

Test system: Jeko-1
EXPERIMENT: Cytotoxicity study (MTS), 5 days
Format: cell-based
ASSAY_CONDITIONS: Homo sapiens, MCL
QUANTITY_KIND: IC50 (µM)
Answers are plain numbers, in µM.

INPUT: Which value of IC50 has been reported for Cc1[nH]c2ccc(F)cc2c1-c1nc2c3cccnc3c3ncccc3c2[nH]1 in the records?
OUTPUT: 0.057

---

Tested on: SUDHL-6
EXPERIMENT: Cytotoxicity study (MTS), 5 days
Format: cell-based
ASSAY_CONDITIONS: Homo sapiens, SU-DHL-6; DLBCL
QUANTITY_KIND: IC50
Write down the value, and be sure its unit follows.

INPUT: For Cc1[nH]c2ccc(F)cc2c1-c1nc2c3cccnc3c3ncccc3c2[nH]1 [COMPOUND I] , what is its reported IC50?
OUTPUT: 0.51 µM

---

System: Raji cells
EXPERIMENT: Cytotoxicity study, MTS cell proliferation assay, 5 days
Type: cell-based, human
ASSAY_CONDITIONS: Homo sapiens, Raji, COMPOUND I alone; mean ± SEM
QUANTITY_KIND: IC50 (nM)
One number for each entry, in nM.

INPUT: # input compound: Cc1[nH]c2ccc(F)cc2c1-c1nc2c3cccnc3c3ncccc3c2[nH]1 ; wanted: its IC50
OUTPUT: 105

---

Test system: MV4-11
EXPERIMENT: Cytotoxicity study (MTS)
Assay type: cell-based
ASSAY_CONDITIONS: Homo sapiens; MV4-11, exposure 48 hours; read-out: IC50
QUANTITY_KIND: IC50 (nM)
Answers are plain numbers, in nM.

INPUT: Value lookup for IC50; key = Cc1[nH]c2ccc(F)cc2c1-c1nc2c3cccnc3c3ncccc3c2[nH]1 [COMPOUND I]
OUTPUT: 470

---

Test system: Jurkat
EXPERIMENT: Cytotoxicity study (MTS), 5 days
Assay type: cell-based
ASSAY_CONDITIONS: Homo sapiens, T-ALL
QUANTITY_KIND: IC50 (µM)
Give bare numbers, in µM.

INPUT: What measured IC50 goes with Cc1[nH]c2ccc(F)cc2c1-c1nc2c3cccnc3c3ncccc3c2[nH]1 [COMPOUND I] ?
OUTPUT: 0.52

---

Test system: HL-60
EXPERIMENT: Cytotoxicity study (MTS), 5 days
Assay type: cell-based
ASSAY_CONDITIONS: Homo sapiens, AML
QUANTITY_KIND: IC50 (µM)
One number for each entry, in µM.

INPUT: Would you mind telling me what IC50 value was observed for Cc1[nH]c2ccc(F)cc2c1-c1nc2c3cccnc3c3ncccc3c2[nH]1 ?
OUTPUT: 0.46

The origin of these recorded values is patent US11149047B2.
